Tested on: rodent lifetime carcinogenesis bioassay, tumor incidence TD50
test_details: carcinogenic potency in animals, long-term in vivo studies, CPDB compilation (AID 1745844)
test_conditions: mouse; strain C3H/HeN; males; in feed; site: liver; lesion: hepatocellular carcinoma; dosed 77 weeks; study length 77 weeks
property_measured: TD50

TD50 on rodent lifetime carcinogenesis bioassay, tumor incidence TD50 for O=C1c2cccc(O)c2C(=O)c2c(O)cccc21 is 336 mg/kg/day

* * *

Tested on: rodent lifetime carcinogenesis bioassay, tumor incidence TD50
test_details: carcinogenic potency in animals, long-term in vivo studies, CPDB compilation (AID 1745844)
test_conditions: rat; strain Fischer 344; females; in feed; site: uterus, endometrium; lesion: adenocarcinoma, NOS; dosed 104 weeks; study length 105 weeks
property_measured: TD50

TD50 for CN(C)NC(=O)CCC(=O)O is 2500 mg/kg/day
